target: bovine trypsin (Bos taurus); experiment: Inactivation rate of bovine trypsin, incubation method; format: biochemical; conditions: Table II; 0.13 μM trypsin, 0.25-42 μM inhibitor, 80 mM Hepes pH 7.5, 1 mM CaCl2, 8% DMSO, 25° C.; NI = no inhibition
Sequence (P00760 24-246): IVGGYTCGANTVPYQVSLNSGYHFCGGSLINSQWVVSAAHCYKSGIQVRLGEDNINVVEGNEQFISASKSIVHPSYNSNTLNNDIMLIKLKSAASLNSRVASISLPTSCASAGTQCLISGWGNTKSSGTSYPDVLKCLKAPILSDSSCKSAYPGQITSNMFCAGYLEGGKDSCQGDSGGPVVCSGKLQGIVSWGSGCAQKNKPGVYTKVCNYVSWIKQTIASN
measurementName: kobs /[I] bovine trypsin

Value of measured kobs /[I] bovine trypsin for the entry Cl.N=C(N)c1ccc(C(NC(=O)OCc2ccccc2)P(=O)(Oc2ccc(Cl)cc2)Oc2ccc(Cl)cc2)cc1 (stereo not drawn) : 41,100 ± 5400 M^-1 s^-1

Value of measured kobs /[I] bovine trypsin for the entry CC(NC(=O)C(Cc1ccccc1)NC(=O)OCc1ccccc1)C(=O)NC(c1ccc(C(=N)N)cc1)P(=O)(Oc1ccccc1)Oc1ccccc1 (mixture of isomers) : 3,010 ± 318 M^-1 s^-1

Further cases:
Value of measured kobs /[I] bovine trypsin for the entry CC(C)(C)OC(=O)N[C@H](Cc1ccccc1)C(=O)N1CCC[C@H]1C(=O)NC(c1ccc(C(=N)N)cc1)P(=O)(Oc1ccccc1)Oc1ccccc1.Cl (stereo partly drawn) : 2,200 M^-1 s^-1
